This collection of values is drawn from paper PMC11784839.

- Tested target: tau (Homo sapiens, UniProt P10636)
- Sequence (P10636 623-695 limits assumed): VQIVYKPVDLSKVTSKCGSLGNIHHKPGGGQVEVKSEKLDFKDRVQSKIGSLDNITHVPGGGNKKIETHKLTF
- Procedure text: MCE Phenols Library screening, tau biosensor cell seeding assay (AvZ)
- Format: cell-based
- Assay conditions: puncta, replicate 1
// No strictly below 20000 in raw data 1; Yes otherwise

// below: answered compounds
CC(C)=CCc1c2ccoc2c(O)c2oc(=O)ccc12    Yes
CC(C)=CCc1c(O)ccc(C(=O)[C@@H]2[C@@H](c3c(O)cc(O)c4c(=O)c(CC=C(C)C)c(-c5ccc(O)cc5O)oc34)C=C(C)C[C@H]2c2ccc(O)cc2O)c1O    Yes
COc1cc(C(=O)O[C@H]2[C@@H]3C=CO[C@@H](O[C@@H]4O[C@H](CO)[C@@H](O)[C@H](O)[C@H]4O)[C@@H]3[C@@]3(CO)O[C@@H]23)ccc1O [Picroside II]    Yes

Prompt: Please tell me: is the compound COc1cc(/C=C/C(=O)[O-])ccc1O.[Na+] [Ferulic acid (sodium)] at or over 20000 in terms of raw data 1?
Response: No

Prompt: Could you verify whether the entry COc1cc(O)c2c(=O)c(-c3ccc(O)cc3)coc2c1 shows raw data 1 of no less than 20000?
Response: Yes

Prompt: Does the compound C[C@@H]1O[C@@H](Oc2cc(O)c3c(=O)c(O)c(-c4ccc(O)c(O)c4)oc3c2)[C@H](O)[C@H](O)[C@H]1O [Vincetoxicoside B] have recorded raw data 1 that is 20000 or more?
Response: No

Prompt: Decide: raw data 1 of O=c1c(O)cc([C@H]2Oc3cc(O)cc(O)c3C[C@H]2O)cc2c([C@H]3Oc4cc(O)cc(O)c4C[C@H]3O)cc(O)c(O)c12 >= 20000?
Response: No
